- protocol_summary: Parallel artificial membrane permeability assay (PAMPA) for CNS / blood-brain barrier permeability
- measurement_setup: pH 7.4
parameter_measured: Papp at 2.5 h (×10⁻⁶ cm/s)
Supply the numeric figure in ×10⁻⁶ cm/s, leaving out any unit text.

Dear colleague, I am looking for the recorded Papp at 2.5 h of the following compound: `CN1C(C(=O)Nc2ccccn2)=C(O)c2ccccc2S1(=O)=O`
0.2

----------
- protocol_summary: Pharmacokinetic studies in mice: exposure in plasma and brain
- measurement_setup: C57BL/6, mouse, plasma and brain, po, 10 mg/kg
parameter_measured: Tmax (min)
Supply the numeric figure in min, leaving out any unit text.

Dear colleague, I am looking for the recorded Tmax of the following molecule: `S=c1[nH]c2ccccc2c(=S)n1-c1ccccc1`
30

These data points were gathered from patent US9796687B2.
